test_system: menin protein (Homo sapiens (Human), UniProt O00255)
Sequence (O00255 whole entry): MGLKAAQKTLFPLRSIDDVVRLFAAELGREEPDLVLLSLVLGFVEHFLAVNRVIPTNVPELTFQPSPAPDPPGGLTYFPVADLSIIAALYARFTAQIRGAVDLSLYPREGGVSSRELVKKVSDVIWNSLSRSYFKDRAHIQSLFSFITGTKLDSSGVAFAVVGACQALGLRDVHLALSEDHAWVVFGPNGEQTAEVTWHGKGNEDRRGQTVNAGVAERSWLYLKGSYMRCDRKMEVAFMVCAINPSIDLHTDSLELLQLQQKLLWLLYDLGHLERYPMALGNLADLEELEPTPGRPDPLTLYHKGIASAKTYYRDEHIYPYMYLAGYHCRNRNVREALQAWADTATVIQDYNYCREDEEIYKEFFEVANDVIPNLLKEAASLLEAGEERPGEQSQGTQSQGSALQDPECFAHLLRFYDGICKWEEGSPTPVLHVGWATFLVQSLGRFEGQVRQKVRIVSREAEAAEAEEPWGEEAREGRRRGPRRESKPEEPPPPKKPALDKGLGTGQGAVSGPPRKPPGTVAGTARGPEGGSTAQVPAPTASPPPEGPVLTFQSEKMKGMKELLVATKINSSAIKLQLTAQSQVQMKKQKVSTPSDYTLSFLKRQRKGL
measurement_notes: biochemical
Assay type: binding
condition: FP competitive binding; menin protein 4 nM, FAM-MM2 probe 2 nM; read-out: Menin Binding Affinity IC50
endpoint_label: pIC50
The read-out pIC50 is expressed as -log10 of concentration in moles per litre.

Memo: O=S(=O)(c1ccc(N2CC(CN3CCC(C4(C5CCCC5)CN(CCF)Cc5ccccc54)CC3)C2)cc1)C1CC1 (stereo not drawn) , reported pIC50: 6.86

For reference, reported pIC50 for Cc1nccn1CC(c1ccccc1)(C1CCCC1)C1CCN(CCCOc2ccc(C#N)cc2)CC1 (stereo not drawn) stands at 6.78

So, CNC(=O)O[C@H]1CCC[C@@H]1C(Cn1ccnc1C)(c1ccccc1)C1CCN(CC2CN(c3ccc(C#N)cc3)C2)CC1 (mixture of isomers) ? Its pIC50 was 8.52

Lab book: pIC50 of c1ccc(OCCCN2CCC(C3(C4CCCC4)NCCc4ccccc43)CC2)cc1 (stereo not drawn) noted as 5.89

Recorded pIC50 (compound CNC(=O)O[C@H]1CCC[C@@H]1C(Cn1ccnc1)(c1cccc(F)c1)C1CCN(CC2CN(c3ccc(C#N)cc3)C2)CC1 (mixture of isomers) ): 8.30

Field pIC50 (entry CS(=O)(=O)N[C@H]1CCC[C@@H]1C(C#N)(c1ccccc1)C1CCN(CC2CN(c3ccc(S(=O)(=O)c4ccncc4)cc3)C2)CC1 (mixture of isomers) ) reads 6.36
